Biological target: Proto-oncogene tyrosine-protein kinase Src (Homo sapiens, UniProt P12931)
Sequence (P12931 2-536 limits assumed): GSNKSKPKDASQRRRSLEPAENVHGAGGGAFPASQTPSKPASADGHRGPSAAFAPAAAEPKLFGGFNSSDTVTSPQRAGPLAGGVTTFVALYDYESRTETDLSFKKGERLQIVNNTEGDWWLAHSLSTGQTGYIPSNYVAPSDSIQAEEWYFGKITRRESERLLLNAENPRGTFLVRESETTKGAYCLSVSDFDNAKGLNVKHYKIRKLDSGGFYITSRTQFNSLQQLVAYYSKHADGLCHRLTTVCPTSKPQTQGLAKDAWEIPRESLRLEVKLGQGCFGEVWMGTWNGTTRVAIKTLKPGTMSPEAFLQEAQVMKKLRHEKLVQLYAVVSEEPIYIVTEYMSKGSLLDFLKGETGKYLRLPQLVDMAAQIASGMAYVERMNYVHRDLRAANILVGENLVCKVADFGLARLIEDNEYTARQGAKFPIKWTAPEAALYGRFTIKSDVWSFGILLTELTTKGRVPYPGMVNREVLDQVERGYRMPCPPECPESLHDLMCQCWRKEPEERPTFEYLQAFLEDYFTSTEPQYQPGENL
pIC50: −log10 of the molar value.
test.readout: pIC50

1) COc1cccc(CNC(=O)[C@@H](NC(=O)COc2cc3[n+]4c(c2)C(=O)[O][Cu]4([OH])[O]C3=O)c2ccccc2)c1: 4.70
